# EXPERIMENTAL TARGET: human ether-à-go-go-related gene (hERG) potassium channel (human, UniProt Q12809);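 note: peak tail current of the secondary pulse compared with the same well before compound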
# Sequence (Q12809 whole entry, looked up): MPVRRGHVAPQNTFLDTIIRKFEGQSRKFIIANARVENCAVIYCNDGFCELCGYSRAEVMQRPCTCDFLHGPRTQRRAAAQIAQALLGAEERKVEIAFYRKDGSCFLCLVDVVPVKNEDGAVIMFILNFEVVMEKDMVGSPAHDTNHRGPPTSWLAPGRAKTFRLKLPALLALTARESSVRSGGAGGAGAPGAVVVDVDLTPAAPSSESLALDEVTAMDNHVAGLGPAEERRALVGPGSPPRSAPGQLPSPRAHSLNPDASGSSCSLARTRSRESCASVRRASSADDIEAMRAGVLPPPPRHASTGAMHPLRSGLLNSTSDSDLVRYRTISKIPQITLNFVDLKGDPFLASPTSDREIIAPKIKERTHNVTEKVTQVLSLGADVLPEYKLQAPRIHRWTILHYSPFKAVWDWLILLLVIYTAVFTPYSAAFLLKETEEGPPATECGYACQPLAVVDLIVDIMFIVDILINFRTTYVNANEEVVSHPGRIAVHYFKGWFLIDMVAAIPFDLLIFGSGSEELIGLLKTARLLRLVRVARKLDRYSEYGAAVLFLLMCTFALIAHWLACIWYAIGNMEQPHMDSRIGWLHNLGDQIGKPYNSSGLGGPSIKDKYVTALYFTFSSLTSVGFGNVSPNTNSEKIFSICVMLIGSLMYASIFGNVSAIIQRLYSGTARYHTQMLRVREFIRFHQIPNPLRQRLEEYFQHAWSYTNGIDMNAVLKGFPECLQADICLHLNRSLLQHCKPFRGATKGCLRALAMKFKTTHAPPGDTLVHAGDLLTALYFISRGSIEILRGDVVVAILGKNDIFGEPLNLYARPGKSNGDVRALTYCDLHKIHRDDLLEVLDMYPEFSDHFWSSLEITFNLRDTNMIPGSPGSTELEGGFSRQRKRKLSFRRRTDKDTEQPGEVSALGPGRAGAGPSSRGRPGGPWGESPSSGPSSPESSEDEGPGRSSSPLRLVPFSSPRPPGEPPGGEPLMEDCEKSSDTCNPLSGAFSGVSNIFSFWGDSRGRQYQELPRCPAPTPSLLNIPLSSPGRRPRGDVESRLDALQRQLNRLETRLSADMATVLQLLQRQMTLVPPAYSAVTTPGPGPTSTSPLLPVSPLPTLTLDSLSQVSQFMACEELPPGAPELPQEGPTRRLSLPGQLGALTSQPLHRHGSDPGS
# MEASUREMENT DESCRIPTION: primary screen, population patch clamp on CHO cells stably expressing hERG; higher = less effect of the substance
About 14,000 (4.5%) of roughly 310,000 compounds showed an effect of 50% or more. The effect is printed as a negative number. Many of the other results were omitted from the sample, so strong results are more common in it than they were.
PROPERTY LABEL: hERG current change (%, negative = inhibition) at 10uM (%)
Give bare numbers, in %.

Below, 4 compounds whose answers are already recorded.
{"columns": ["COMPOUND", "UNITS", "OBSERVED VALUE"],
 "data": [
  ["COCCNC(=O)C(=O)c1c(-c2ccccc2)[nH]c2ccccc12", "%", 1.69],
  ["O=C(O)CCCC(=O)Nc1ccc(N=Nc2ccccc2)cc1", "%", 14.5],
  ["O=C(Nc1ccc(C(=O)N2CCOCC2)cc1)c1cccc(Br)c1", "%", 3.11],
  ["COc1ccc(/C=C(\\NC(=O)c2ccccc2)C(=O)OCC2CCCN3CCCCC23)cc1OC (centres unmarked)", "%", -40.7]
]}

Quick check: hERG current change (%, negative = inhibition) at 10uM on human ether-à-go-go-related gene (hERG) potassium channel (human, UniProt Q12809), item O=C(NCc1ccccc1)C(=O)Nc1cccc(C(=O)O)c1 ?
4.16

###

# EXPERIMENTAL TARGET: human ether-à-go-go-related gene (hERG) potassium channel (human);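 note: peak tail current of the secondary pulse compared with the same well before compound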
# MEASUREMENT DESCRIPTION: primary screen, population patch clamp on CHO cells stably expressing hERG; higher = less effect of the substance
Screen size: about 310,000 compounds; about 14,000 (4.5%) showed an effect of 50% or more. The effect is printed as a negative number. For the sample, strong results were picked, then their nearest neighbours and some compounds at random.
PROPERTY LABEL: hERG current change (%, negative = inhibition) at 10uM (%)
One number for each entry, in %.

Below, 2 compounds whose answers are already recorded.
{"columns": ["COMPOUND", "EXPERIMENTAL TARGET", "OBSERVED VALUE"],
 "data": [
  ["CCOC(=O)c1c(NC(=O)c2cccc(N3C(=O)CCC3=O)c2)sc2c1CCN(CC)C2.Cl", "human ether-à-go-go-related gene (hERG) potassium channel (human)", -31.5],
  ["CCN1CCN(c2ccc(NC(=O)c3ccc4c(c3)OCO4)cc2)CC1", "human ether-à-go-go-related gene (hERG) potassium channel (human)", -54.5]
]}

Provide the reported hERG current change (%, negative = inhibition) at 10uM of each entry below, same order.
1. CS(=O)(=O)Cc1ccc(C(=O)NC2CCN(Cc3ccccc3)C2)cc1 (stereo not shown)
2. CN1CCN(c2ccc(NC(=O)c3ccc4c(c3)OCO4)cc2)CC1
3. NS(=O)(=O)c1ccc(CNC(=O)CC23CC4CC(CC(C4)C2)C3)cc1
4. CCN1CCc2c(sc(NC(=O)c3ccc(S(=O)(=O)N4CCOCC4)cc3)c2C(=O)OC)C1.Cl
5. CN1CCN(C(=O)c2c(NC(=O)c3ccco3)sc3c2CCC(C(C)(C)C)C3)CC1 (stereo not shown)
6. CC(C)N1CCc2c(sc(NC(=O)CCc3ccccc3)c2C(N)=O)C1.Cl

[-5.28, -38.3, -5.69, -42.2, -69.5, -57.2]

Provide the reported hERG current change (%, negative = inhibition) at 10uM of each entry below, same order.
1. CC(C)N1CCc2c(sc(NC(=O)Cc3ccccc3)c2C(N)=O)C1.Cl
2. CC(C)(CO)NC(=O)C(Cc1ccccc1)N1C(=O)c2ccccc2C1=O (stereo not shown)
3. CCCN(C(=O)CSCc1ccccc1C)c1c(N)n(Cc2ccccc2)c(=O)[nH]c1=O
4. CC(C)(C)CC(C)(C)NCC(O)COCCOc1ccc(Br)cc1.Cl (stereo not shown)

-11.5
17
-4.64
-32.8

Provide the reported hERG current change (%, negative = inhibition) at 10uM of each entry below, same order.
1. Cc1cc(C(=O)COC(=O)c2ccncc2)c(C)n1Cc1ccco1
2. O=C(Nc1ccc(CN2CCCCC2)cc1)c1ccc(Br)o1

13.7
-33
